# System: HSV-1
# methodSummary: microbe, parasite or virus in culture
# Assay type: cell-based, herpes simplex virus type 1
# testSettings: Human alphaherpesvirus 1, 48 h, read-out: HSV-1 IC50, µM
assayMetric: IC50

Solved cases (3 shown):
entrysmiles=COc1ccccc1NC(=O)CSc1nc(N2CCNCC2)c2c(c1C#N)CC(C)(C)OC2 observed="> 3.75 µM"
entrysmiles=CC1(C)Cc2c(C#N)c(SCC(N)=O)nc(N3CCNCC3)c2CO1 observed="> 300 µM"
entrysmiles=CC1(C)Cc2c(C#N)c(SCc3ccccc3Cl)nc(N3CCNCC3)c2CO1 observed="> 7.5 µM"

Endpoint output: IC50 of CC(=O)c1ccc(NC(=O)CSc2nc(N3CCNCC3)c3c(c2C#N)CC(C)(C)OC3)cc1 . Value?
> 5 µM

Param item: COc1cccc(NC(=O)CSc2nc(N3CCNCC3)c3c(c2C#N)CC(C)(C)OC3)c1
> 60 µM

====

# methodSummary: Cytotoxicity by MTS assay in MDCK cells
# Format: cell-based
# testSettings: dog, read-out: Influenza A Virus CC50
Kindly apply the following: yes (1) if CC50 at 66 h is less than 1000 µM, no (0) in every other case.

The examples below pair each entry with its known result.
entrysmiles=COc1ccccc1NC(=O)CSc1nc(N2CCNCC2)c2c(c1C#N)CC(C)(C)OC2 class="yes (1)"
entrysmiles=CC1(C)Cc2c(C#N)c(SCC(N)=O)nc(N3CCNCC3)c2CO1 class="no (0)"
entrysmiles=COc1cccc(NC(=O)CSc2nc(N3CCNCC3)c3c(c2C#N)CC(C)(C)OC3)c1 class="yes (1)"
entrysmiles=CC(=O)c1ccc(NC(=O)CSc2nc(N3CCNCC3)c3c(c2C#N)CC(C)(C)OC3)cc1 class="no (0)"

As a next step, examine the compound that follows.
Hello, I'm reviewing records and need to know if CC50 at 66 h of CC1(C)Cc2c(C#N)c(SCc3ccccc3Cl)nc(N3CCNCC3)c2CO1 is below 1000 µM. Could you check?
yes (1)

====

# System: Influenza A virus
# methodSummary: microbe, parasite or virus in culture
# Type: cell-based, influenza A virus (H1N1)
# testSettings: Influenza A virus, MDCK, read-out: Influenza A Virus IC50, µM
assayMetric: IC50 (µM)
// note: answer is a bare numeric in µM

Find IC50 (Influenza A virus) for the entry CCOC(=O)C1=C[C@@H](OC(CC)CC)[C@H](NC(C)=O)[C@@H](N)C1 [Oseltamivir, reference compound]
0.02

====

# System: PV1
# methodSummary: microbe, parasite or virus in culture
# Assay type: cell-based, poliovirus type 1
# testSettings: Enterovirus C, 48 h, read-out: PV1 IC50, µM
assayMetric: IC50

Solved cases (4 shown):
entrysmiles=CC(=O)c1ccc(NC(=O)CSc2nc(N3CCNCC3)c3c(c2C#N)CC(C)(C)OC3)cc1 assaymetric=IC50 observed="> 5 µM"
entrysmiles=COc1cccc(NC(=O)CSc2nc(N3CCNCC3)c3c(c2C#N)CC(C)(C)OC3)c1 assaymetric=IC50 observed="> 60 µM"
entrysmiles=CC1(C)Cc2c(C#N)c(SCc3ccccc3Cl)nc(N3CCNCC3)c2CO1 assaymetric=IC50 observed="> 7.5 µM"
entrysmiles=CC1(C)Cc2c(C#N)c(SCC(N)=O)nc(N3CCNCC3)c2CO1 assaymetric=IC50 observed="> 300 µM"

As a next step, examine the molecule that follows.
Endpoint output: IC50 of COc1ccccc1NC(=O)CSc1nc(N2CCNCC2)c2c(c1C#N)CC(C)(C)OC2 . Value?
> 3.75 µM

====

Listing: IC50 of selected molecules
# Tested on: SARS-CoV-2
# methodSummary: microbe, parasite or virus in culture
# Format: cell-based
# testSettings: Severe acute respiratory syndrome coronavirus 2, Vero C1008, read-out: SARS-CoV-2 IC50, µM

Solved cases (2 shown):
molecule="CC(=O)c1ccc(NC(=O)CSc2nc(N3CCNCC3)c3c(c2C#N)CC(C)(C)OC3)cc1 [DO11-50]" observed="> 15 µM"
molecule="CC1(C)Cc2c(C#N)c(SCC(N)=O)nc(N3CCNCC3)c2CO1 [DO11-37]" observed="> 200 µM"

Find IC50 (SARS-CoV-2) for the entry COc1cccc(NC(=O)CSc2nc(N3CCNCC3)c3c(c2C#N)CC(C)(C)OC3)c1 [DO11-47]
> 38 µM

Param item: COc1ccccc1NC(=O)CSc1nc(N2CCNCC2)c2c(c1C#N)CC(C)(C)OC2 [DO11-48]
> 10 µM

Param item: CC1(C)Cc2c(C#N)c(SCc3ccccc3Cl)nc(N3CCNCC3)c2CO1 [DO11-42]
> 15 µM

====

Listing: IC50 of selected compounds
# Tested on: HepaRG
# methodSummary: Cytotoxicity towards non-tumor differentiated HepaRG cells, MTT
# Format: cell-based, human
# testSettings: Homo sapiens, concentration decreasing number of viable cells by 50%

Solved cases (5 shown):
compound="CC1(C)Cc2c(C#N)c(SCC(N)=O)nc(N3CCNCC3)c2CO1 [DO11-37]" observed="968 µM"
compound="CC1(C)Cc2c(C#N)c(SCc3ccccc3Cl)nc(N3CCNCC3)c2CO1 [DO11-42]" observed="24.5 µM"
compound="COc1cccc(NC(=O)CSc2nc(N3CCNCC3)c3c(c2C#N)CC(C)(C)OC3)c1 [DO11-47]" observed="437 µM"
compound="CNC(=O)c1cc(Oc2ccc(NC(=O)Nc3ccc(Cl)c(C(F)(F)F)c3)cc2)ccn1 [Sorafenib, reference compound]" observed="> 100 µM"
compound="COc1ccccc1NC(=O)CSc1nc(N2CCNCC2)c2c(c1C#N)CC(C)(C)OC2 [DO11-48]" observed="10.9 µM"

As a next step, examine the compound that follows.
Endpoint output: IC50 of CC(=O)c1ccc(NC(=O)CSc2nc(N3CCNCC3)c3c(c2C#N)CC(C)(C)OC3)cc1 [DO11-50] . Value?
42.4 µM
